# assayed-target: T1, recombinant human RON SEMA and PSI domains (human, UniProt Q04912 25-571)
# T1 construct: domain: SEMA+PSI; Commercial protein (R&D Systems); also called rhRON SEMA+PSI; hRON SEMA+PSI
# procedure-details: SPR, Ab captured on anti-human IgG Fc, 37 C, screening
value-type: kon (M⁻¹ s⁻¹)
The figure you give is taken to be in M⁻¹ s⁻¹; do not add the unit.

Sample records with kon:
Noted for Sh29B06-9 (antibody, human IgG1, kappa, V domains shown, Chimeric 29B06 Heavy IgG1 + Sh29B06 Kv2-28 Kappa) VH: EVQLQESGPSLVKPSQTLSLTCSVTGDSITSGYWNWIRKFPGNKLEYMGYISYSGKTYYNPSLKSRISITRDTSKNHYYLQLISVTAEDTATYYCARSKYDYAMDYWGQGTSVTVSS VL: DIVMTQSPLSLPVTPGEPASISCRASEIVDNFGISFMNWYLQKPGQSPQLLIYAASNQGSGVPDRFSGSGSGTDFTLKISRVEAEDVGVYYCQQSKEVPPTFGGGTKVEIKR : its kon reads 870000

Noted for Sh07F01-69 (antibody, human IgG1, kappa, V domains shown, Humanized, human IgG1/kappa: Sh07F01 Hv3-48 IgG1 + Sh07F01 Kv1-9 F1 Kappa) VH: EVQLVESGGGLVQPGGSLRLSCAASGFDFSRHWMSWVRQAPGKGLEWVSEINPDSRTINYTPSLKERFTISRDNAKNSLYLQMNSLRAEDTAVYYCARRVRIHYYGAMDSWGQGTTVTVSS VL: DIQLTQSPSFLSASVGDRVTITCRASQNVGSSLVWYQQKPGKAPKTLIYSASFLYSGVPSRFSGSGSGTEFTLTISSLQPEDFATYYCQQYNNYPLTFGGGTKVEIKR : its kon reads 2.3e+06

With those in mind, consider the next binder.
Noted for Sh07F01-2 (antibody, human IgG1, kappa, V domains shown, also called Chimeric 07F01 C102S) VH: EVKLLESGGGLVQPGGSLKLSCAASGFDFSRHWMSWVRLAPGKGLEWIAEINPDSRTINYTPSLKEKFIISRDNAKNSLFLQMNRVRSEDTALYYCARRVRIHYYGAMDSWGQGTSVTVSS VL: DIVLTQSQKIVSTSVGARVSVTCKASQNVGSSLVWYQQKPGQSPKTLIYSASFRYSGVPDRFTGSGSGTDFTLTISNVQSEDLADYFCQQYNNYPLTFGAGTKLELKR : its kon reads 2e+06

All values here come from patent US20120027773A1.
